The values you see were collected from paper PMC5540273.

Tested on: MTOR
setup_conditions: concentration: 1 μM, replicates: in singlicate; n = 1;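 note: KINOMEscan kinase panel screen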
Flag rule - %Inh less than 10% flags Criterion met; the remaining entries get Criterion not met.

Below are worked cases with known answers.
molecule: COc1cccc(NC(=O)NC2CCN(c3ccnc(Nc4ccc(F)cc4)n3)C2)c1 (stereo not drawn)
target_system: MTOR
label: Criterion not met

molecule: O=C(Nc1n[nH]c2cc(-c3cccc(F)c3F)ccc12)C1CC1
target_system: MTOR
label: Criterion met

Lab note: confirm whether the reported %Inh for this molecule is below 10%, equality not counting. molecule: O=C(Nc1ccc2c(c1)OCO2)NC1CCN(c2ccnc(Nc3ccc(F)cc3)n2)C1 (stereo not drawn)
Criterion met

Lab log: compare recorded %Inh with 10%; is it strictly lower for Cc1ccc(-c2cc(-c3c[nH]nc3-c3ccccn3)ccn2)cc1 ?
Criterion not met

Lab note: confirm whether the reported %Inh for this molecule is below 10%, equality not counting. molecule: Cc1c(O)cccc1Nc1ccnc2ccc(C(F)(F)F)cc12.Cl
Criterion met

Find out if reported %Inh for O=C(Nc1n[nH]c2nc(-c3nccs3)c(Br)cc12)C1CCCC1 is less than 10%
Criterion not met

Consider CC(C)(C)c1ccc(C(=O)Nc2cn3cc(Cl)ccc3n2)cc1 . Does its %Inh lie strictly below 10%?
Criterion not met

Identify whether the molecule O=c1cc(N2CCOCC2)nc2n(Cc3cccc(Cl)c3Cl)ccn12 records %Inh below 10%.
Criterion not met

For this molecule, is %Inh lower than 10%? COc1ccccc1CNC(=O)c1cc(C(=O)c2ccccc2C)c[nH]1
Criterion not met

Is %Inh strictly under 10% for the entry CN1C(=O)C(Nc2ccc(Cl)c(C(=O)O)c2)=C(c2ccc(Cl)cc2)C1=O ?
Criterion met

Dear reviewer, please state whether Cc1ccc(C(=O)Nc2ccc(Nc3ccnc4cc(-c5ccccn5)ccc34)cc2O)cc1.Cl has %Inh strictly beneath 10%.
Criterion not met

----------
System: STK36
setup_conditions: concentration: 1 μM, replicates: in singlicate; n = 1
Consider the following compounds and their measured %Inh readings.
Quick reminder: number only, in %, skip the unit.

Worked cases, %Inh given:
compound: Cc1ccc(C(=O)Nc2ccc(Nc3ccnc4cc(-c5ccccn5)ccc34)cc2O)cc1.Cl [GW440146]
%Inh [%]: 0
--
compound: Cc1cccc(-c2nc(-c3ccc(S(C)(=O)=O)cc3)sc2-c2ccnc(NCCc3ccccc3)c2)c1
%Inh [%]: 11
--
compound: Cc1ccccc1-n1cnc2c(N)ncnc21 [SKF-97510]
%Inh [%]: 27
--
compound: COC(=O)c1c(-c2ccccc2)c2cc(C(=O)O)ccc2c(=O)n1Cc1ccccc1
%Inh [%]: 5
--
compound: COc1cc(Nc2nccc(N3CCC(NC(=O)Nc4cc(C)ccc4C)C3)n2)cc(OC)c1OC (stereo not drawn) [GSK1379762]
%Inh [%]: 0

Kindly consider the entry below.
Entry under review: COc1ccccc1CNC(=O)c1cc(C(=O)c2ccccc2C)c[nH]1 [GSK364507] . Reported %Inh?
0

----------
Tested on: CSNK1G1
setup_conditions: concentration: 1 μM, replicates: in singlicate; n = 1
For each record, check the reported %Inh: if it is below 1% write MET, else write NOT MET.

compound: O=C1NC(=O)C(N2CCc3ccccc32)=C1c1ccccc1Cl [SB-373598]
label: NOT MET
--
compound: CC(C)(C)c1ccc(C(=O)Nc2cn3cc(Cl)ccc3n2)cc1
label: MET

Is %Inh of Nc1ncnc2[nH]c(-c3ccccc3)nc12 [AH5015] strictly below 1%?
NOT MET

For Cn1cncc1-c1ccc2ncnc(Nc3ccc(OCc4ccccc4)cc3)c2c1 [GW320571] , is the recorded %Inh below the cut-off of 1%?
MET

Field: below-cutoff. Rule: recorded %Inh strictly less than 1%. Subject: CCCc1ccc(S(=O)(=O)NC2CCN(c3ccnc(Nc4ccc(F)cc4)n3)C2)cc1 (stereo not drawn) [GSK1379715]
NOT MET

hey, is %Inh for COc1ccc2nc(-c3cccc(C)n3)nc(Nc3ccncc3)c2c1 [GSK204919] lower than 1% or not?
MET

In plain terms, does COC(=O)c1c(-c2ccccc2)c2cc(OC)ccc2c(=O)n1Cc1ccccc1 come in under 1% for %Inh?
NOT MET
